Hello, the source for this data is the supplement of paper PMC8617591, in case you need it.

tested on: Mycobacterium tuberculosis Erdman (autoluminescent); experiment: AUC25, normalised area under dose response up to IC25 (fraction (0-1)); higher = more potent at low dose; conditions: in vitro model: cholesterol-high 0.2 mM; time point: constant (~7 days, model-specific)
Assignment: determine reported AUC25 for the given compounds.
Numbers only.

// known answers, use as guide
1) COc1nc2ccc(Br)cc2cc1[C@@H](c1ccccc1)[C@@](O)(CCN(C)C)c1cccc2ccccc12 [bedaquiline] + NNC(=O)c1ccncc1 [isoniazid] : 0.0815
2) NNC(=O)c1ccncc1 [isoniazid] + NC(=O)c1cnccn1 [pyrazinamide] : 0.0915
3) COc1c(N2C[C@@H]3CCCN[C@@H]3C2)c(F)cc2c(=O)c(C(=O)O)cn(C3CC3)c12 [moxifloxacin] + CO[C@H]1/C=C/O[C@@]2(C)Oc3c(C)c(O)c4c(O)c(c(/C=N/N5CCN(C)CC5)c(O)c4c3C2=O)NC(=O)/C(C)=C\C=C\[C@H](C)[C@H](O)[C@@H](C)[C@@H](O)[C@@H](C)[C@H](OC(C)=O)[C@@H]1C [rifampicin] : 0.0744

Q. Consider the compound shown here: CC[C@@H](CO)NCCN[C@@H](CC)CO [ethambutol] + CO[C@H]1/C=C/O[C@@]2(C)Oc3c(C)c(O)c4c(O)c(c(/C=N/N5CCN(C)CC5)c(O)c4c3C2=O)NC(=O)/C(C)=C\C=C\[C@H](C)[C@H](O)[C@@H](C)[C@@H](O)[C@@H](C)[C@H](OC(C)=O)[C@@H]1C [rifampicin] What is its recorded AUC25?
A. 0.029
